Test system: HCC2157 (Breast Carcinoma)
experimentSummary: combination Emax (second highest fraction inhibited in the dose matrix, 72 h); higher = more inhibition; extreme values may be limits of the assay
attributeMeasured: combination Emax
The response must contain the number and no unit.

Data request: Look at this compound and give its reported combination Emax. CC1(C)CCC(CN2CCN(c3ccc(C(=O)NS(=O)(=O)c4ccc(NCC5CCOCC5)c([N+](=O)[O-])c4)c(Oc4cnc5[nH]ccc5c4)c3)CC2)=C(c2ccc(Cl)cc2)C1 [Venetoclax] + C1CN(CCC1(C(=O)N[C@@H](CCO)C2=CC=C(C=C2)Cl)N)C3=NC=NC4=C3C=CN4 [Capivasertib] (first compound max 1 µM, 7x7, partner max 3 µM)
Data returned: 0.903

Data request: Which combination Emax value belongs to Cc1cc2ncnn2cc1Nc1ncc2c(n1)n(C1CCOCC1)c(=O)n2C [AZD7648] + O=C(c1cc(Cc2n[nH]c(=O)c3ccccc23)ccc1F)N1CCN(C(=O)C2CC2)CC1 [Olaparib] (first compound max 10 µM, 7x7, partner max 10 µM) ?
Data returned: 0.413

====

System: SW1990 (Pancreatic Carcinoma)
experimentSummary: combination Emax (second highest fraction inhibited in the dose matrix, 72 h); higher = more inhibition; extreme values may be limits of the assay
attributeMeasured: combination Emax

Data request: API: value(readout= combination Emax, system= SW1990 (Pancreatic Carcinoma), query= C[C@@H](Nc1cc(F)cc(F)c1)c1cc(C(=O)N(C)C)cc2c(=O)cc(N3CCOCC3)oc12 [AZD8186] + C1CN(CCC1(C(=O)N[C@@H](CCO)C2=CC=C(C=C2)Cl)N)C3=NC=NC4=C3C=CN4 [AZD5363] (first compound max 10 µM, 7x7, partner max 10 µM) )
Data returned: 0.188

Data request: Query the reported combination Emax for SW1990 (Pancreatic Carcinoma); item: CN(CCO)CC[C@H](CSc1ccccc1)Nc1ccc(S(=O)(=O)NC(=O)c2ccc(N3CCC([C@@H](O)c4ccccc4-c4ccc(Cl)cc4)CC3)cc2)cc1S(=O)(=O)C(F)(F)F [AZD4320] + Cc1cc2ncnn2cc1Nc1ncc2c(n1)n(C1CCOCC1)c(=O)n2C [AZD7648] (first compound max 1 µM, 7x7, partner max 10 µM)
Data returned: 0.0867

Data request: # value lookup — system SW1990 (Pancreatic Carcinoma), readout combination Emax, item CC1(C)CCC(CN2CCN(c3ccc(C(=O)NS(=O)(=O)c4ccc(NCC5CCOCC5)c([N+](=O)[O-])c4)c(Oc4cnc5[nH]ccc5c4)c3)CC2)=C(c2ccc(Cl)cc2)C1 [Venetoclax] + Cc1cc2ncnn2cc1Nc1ncc2c(n1)n(C1CCOCC1)c(=O)n2C [AZD7648] (first compound max 1 µM, 7x7, partner max 10 µM)
Data returned: 0.572

Data request: Missing value: combination Emax, SW1990 (Pancreatic Carcinoma), entry Cc1cc2ncnn2cc1Nc1ncc2c(n1)n(C1CCOCC1)c(=O)n2C [AZD7648] + CN(C)CCCOc1ccc(-c2ccc3ncc4c(c3c2)n(C2CCOCC2)c(=O)n4C)cn1 [AZD0156] (first compound max 10 µM, 7x7, partner max 1 µM) . Fill in?
Data returned: 0.212

Data request: Record Cc1c2c(nn1C)CSCc1cc(n(C)n1)CSc1cc(c3ccccc3c1)OCCCc1c(C(=O)O)n(C)c3c-2c(Cl)ccc13 [AZD5991] + CC1(C)CCC(CN2CCN(c3ccc(C(=O)NS(=O)(=O)c4ccc(NCC5CCOCC5)c([N+](=O)[O-])c4)c(Oc4cnc5[nH]ccc5c4)c3)CC2)=C(c2ccc(Cl)cc2)C1 [Venetoclax] (first compound max 1 µM, 7x7, partner max 1 µM) : what is its combination Emax with SW1990 (Pancreatic Carcinoma)?
Data returned: 0.164

Data request: Give SW1990 (Pancreatic Carcinoma) combination Emax for Cc1c2c(nn1C)CSCc1cc(n(C)n1)CSc1cc(c3ccccc3c1)OCCCc1c(C(=O)O)n(C)c3c-2c(Cl)ccc13 [AZD5991] + Cc1cc2ncnn2cc1Nc1ncc2c(n1)n(C1CCOCC1)c(=O)n2C [AZD7648] (first compound max 1 µM, 7x7, partner max 10 µM)
Data returned: 0.218

Data request: Param readout = combination Emax; param system = SW1990 (Pancreatic Carcinoma); param query = Cc1c2c(nn1C)CSCc1cc(n(C)n1)CSc1cc(c3ccccc3c1)OCCCc1c(C(=O)O)n(C)c3c-2c(Cl)ccc13 [AZD5991] + Cn1cnc2c(F)c(Nc3ccc(Br)cc3Cl)c(C(=O)NOCCO)cc21 [Selumetinib] (first compound max 1 µM, 7x7, partner max 3 µM) ; response: value
Data returned: 0.41
